# System: HCT116 cells
# experiment.description: Combination mutation analysis, TMP dose response MFI
# Type: cell-based, human
# setup.conditions: TMP dose (log) −5.43
measured.quantity: Stabilization ratio

molecule	measured.quantity	recorded.number
OT-hDHFRC-032: combination mutant hDHFR (Y122I, H131R, E144G) (protein, UniProt P00374 1-187, looked up, variant Y122I H131R E144G) Dihydrofolate reductase: MVGSLNCIVAVSQNMGIGKNGDLPWPPLRNEFRYFQRMTTTSSVEGKQNLVIMGKKTWFSIPEKNRPLKGRINLVLSRELKEPPQGAHFLSRSLDDALKLTEQPELANKVDMVWIVGGSSVIKEAMNHPGRLKLFVTRIMQDFGSDTFFPEIDLEKYKLLPEYPGVLSDVQEEKGIKYKFEVYEKND	Stabilization ratio	1.24
OT-hDHFRC-030: combination mutant hDHFR (Y122I, M140I) (protein, UniProt P00374 1-187, looked up, variant Y122I M140I) Dihydrofolate reductase: MVGSLNCIVAVSQNMGIGKNGDLPWPPLRNEFRYFQRMTTTSSVEGKQNLVIMGKKTWFSIPEKNRPLKGRINLVLSRELKEPPQGAHFLSRSLDDALKLTEQPELANKVDMVWIVGGSSVIKEAMNHPGHLKLFVTRIIQDFESDTFFPEIDLEKYKLLPEYPGVLSDVQEEKGIKYKFEVYEKND	Stabilization ratio	1.38
OT-DHFRC-029: combination mutant hDHFR (I17V, Y122I) (protein, UniProt P00374 1-187, looked up, variant I17V Y122I) Dihydrofolate reductase: MVGSLNCIVAVSQNMGVGKNGDLPWPPLRNEFRYFQRMTTTSSVEGKQNLVIMGKKTWFSIPEKNRPLKGRINLVLSRELKEPPQGAHFLSRSLDDALKLTEQPELANKVDMVWIVGGSSVIKEAMNHPGHLKLFVTRIMQDFESDTFFPEIDLEKYKLLPEYPGVLSDVQEEKGIKYKFEVYEKND	Stabilization ratio	7.71
OT-hDHFRC-031: combination mutant hDHFR (N127Y, Y122I) (protein, UniProt P00374 1-187, looked up, variant N127Y Y122I) Dihydrofolate reductase: MVGSLNCIVAVSQNMGIGKNGDLPWPPLRNEFRYFQRMTTTSSVEGKQNLVIMGKKTWFSIPEKNRPLKGRINLVLSRELKEPPQGAHFLSRSLDDALKLTEQPELANKVDMVWIVGGSSVIKEAMYHPGHLKLFVTRIMQDFESDTFFPEIDLEKYKLLPEYPGVLSDVQEEKGIKYKFEVYEKND	Stabilization ratio	6.14
